Attribute: z-score
- MEASUREMENT_NOTES: basal MM1S mitochondrial membrane potential changes, profiling panel, cell-based, JC-1 fluorescence, 24 h, 100 nL compound (AID 1170); note: test concentration not given here
- ASSAY_SETUP: higher = more signal
Give the figure by itself; no unit, no explanation.

Example compounds with recorded z-score:
CCCC=C(CCC)[C@@H](NC(=O)Oc1ccc(F)cc1)c1ccc(C(=O)OC)cc1
-1.44
COCCOC(=O)N1C(=O)[C@@]2(c3cc(C#Cc4ccc(OC)cc4)ccc31)[C@H](c1ccc(O)cc1)N1[C@H](c3ccccc3)[C@H](c3ccccc3)OC(=O)[C@H]1[C@@H]2C(=O)NC[C@H](O)c1ccccc1
-0.524

Lab note: next compound to report on.
Consider the compound COCCOC(=O)N1C(=O)[C@@]2(c3cc(C#CCCO)ccc31)[C@H](C(=O)N1CCN(c3ncccn3)CC1)[C@H]1C(=O)O[C@H](c3ccccc3)[C@H](c3ccccc3)N1[C@@H]2c1ccccc1OCCO and give its recorded z-score. -1.15

====

Attribute: composite z-score
- Test system: Noggin (protein binding on small-molecule microarray)
- MEASUREMENT_NOTES: Noggin binders on small-molecule microarray, primary screen, biochemical, 635/667 nm fluorescence (AID 1095);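 note: score merges 667 nm feature fluorescence with signal to noise over triplicate slides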
- ASSAY_SETUP: 635 nm fluorescence, higher = more signal

Example compounds with recorded composite z-score:
CCCCCCC#C[Si](O[C@H](c1ccccc1)c1cn([C@H](CO)Cc2ccccc2)nn1)(C(C)C)C(C)C
0.0817
C=CC[C@@]1(C(=O)NCc2ccccc2)N=C(c2ccc(OCCCO)cc2)O[C@@H]1c1ccccc1N=[N+]=[N-]
0.8
O=C(NCc1ccc(F)cc1)[C@H]1C[C@H]2C(=O)N[C@@H](Cc3ccccc3)C(=O)N2[C@H]1c1ccc(O)cc1
0.223

Consider the compound C=C(/C(=C/C[C@@H](OC(C)=O)c1ccc(OCCO)cc1)c1cnc2ccccc2c1)C(C)C and give its recorded composite z-score. 0.655

Consider the compound COCCCN1C(=O)[C@@]2(c3ccc([N+](=O)[O-])cc3)CC(=O)N(C3CCCCC3)[C@@H]2c2ccc(CO)cc21 and give its recorded composite z-score. 0.549

Consider the compound CCCN1C(=O)[C@]2(CCS(=O)(=O)c3ccccc3)N=C(c3ccc(OCCCO)cc3)O[C@@H]2c2ccccc21 and give its recorded composite z-score. 0.866

Consider the compound O=C(O)[C@@]1(CCS(=O)(=O)c2ccccc2)COC(c2ccc(OCCCO)cc2)=N1 and give its recorded composite z-score. -0.754

Consider the compound C=C(CCCC)C(=O)CC[C@@H](OC(=O)c1cccnc1)c1ccc(CO)o1 and give its recorded composite z-score. 1.61

====

- System: Sonic hedgehog protein (Shh)
- MEASUREMENT_NOTES: small-molecule binders of Shh protein, primary screen, biochemical, small-molecule microarray, 635/667 nm fluorescence (AID 1151);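 note: Shh protein binding to compounds spotted on small-molecule microarray slides; score combines spot fluorescence intensity with signal-to-noise across triplicate slides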
- ASSAY_SETUP: small-molecule microarray binding, 635 nm fluorescence; higher = more signal
Record TRUE whenever composite z-score is at -0.8 or higher; record FALSE when lower.

C=CCC(OC(C)=O)[C@@H]1[C@@H](N(Cc2ccc(-c3cccc(C(F)(F)F)c3)o2)C(=O)c2ccc(-c3ccccc3)cc2)c2cc(OCCCO)ccc2N1C(=O)c1ccc(-c2ccccc2)cc1 (some centres not stated)
TRUE
O=C(NCc1ccccc1)[C@@]1(CCS(=O)(=O)c2ccccc2)N=C(c2ccc(OCCCO)cc2)O[C@H]1c1ccccc1
TRUE
Cc1ccc(S[C@]2(C(=O)NCC(C)C)CC(=O)N(Cc3cc(C(F)(F)F)cc(C(F)(F)F)c3)[C@@H]2c2ccc(CO)cc2I)cc1
FALSE
COC(=O)C(CC#Cc1ccc2c(c1)[C@]1(C(=O)N2)[C@H](C(=O)O)[C@H]2C(=O)O[C@H](c3ccccc3)[C@H](c3ccccc3)N2[C@@H]1c1ccc(O)cc1)C(=O)OC
TRUE
CN(C)CCCNC(=O)[C@@]1(c2ccc([N+](=O)[O-])cc2)CC(=O)N(C2CCCCC2)[C@@H]1c1ccc(CO)cc1
TRUE

Is composite z-score for O=C1C2C=CC(C(O)C3CCCCC3)N(Nc3ccc([N+](=O)[O-])cc3)C2C(=O)N1c1ccccc1 (configuration not stated) at or above -0.8? FALSE

Is composite z-score for CN1C(=O)C2C=CC(C(O)C3CCCCC3)N(Nc3ccc([N+](=O)[O-])cc3[N+](=O)[O-])C2C1=O (configuration not stated) at or above -0.8? TRUE
